tested on: MGC-803; experiment: Antiproliferative activity against human MGC803 cells after 48 hrs by MTT assay; format: functional, cell-based; conditions: MGC-803, 48 h
READOUT KIND: IC50

Previously resolved entries follow.
COc1ccc2[nH]cc(CCNC(=O)c3cc(Cl)ccc3O)c2c1 = 55 µM
Cc1ccc(C(=O)NCCc2c[nH]c3ccc(Cl)cc23)c(O)c1 = 37 µM
O=C(NCCc1c[nH]c2ccc(F)cc12)c1ccc(Cl)cc1O = 62 µM
O=c1[nH]cc(F)c(=O)[nH]1 = 58 µM
O=C(NCCc1c[nH]c2ccccc12)c1ccc(Cl)cc1O = 80 µM

Asked: Endpoint output: IC50 of O=C(NCCc1c[nH]c2ccccc12)c1ccccc1O . Value?
Given back: > 100 µM

Asked: Another: COc1ccc2[nH]cc(CCNC(=O)c3cccc(C)c3O)c2c1
Given back: 43 µM

Asked: Another: O=C(NCCc1c[nH]c2ccc(Cl)cc12)c1cc(Br)ccc1O
Given back: 35 µM

Asked: Another: O=C(NCCc1c[nH]c2ccc(Cl)cc12)c1ccc(Cl)cc1O
Given back: 34 µM

Asked: Another: Cc1ccc2[nH]cc(CCNC(=O)c3ccccc3O)c2c1
Given back: 45 µM

Asked: Another: COc1ccc2[nH]cc(CCNC(=O)c3ccccc3O)c2c1
Given back: 59 µM

Asked: Another: Cc1ccc(C(=O)NCCc2c[nH]c3ccc(C)cc23)c(O)c1
Given back: 38 µM

Asked: Another: O=C(NCCc1c[nH]c2ccc(Br)cc12)c1ccc(Cl)cc1O
Given back: 43 µM
